These entries and their values trace back to paper PMC6832239.

Quick list: IC50 per entry.
Target: thrombin (Bos taurus, UniProt P00735)
Construct: purchased Lubelska Wytwórnia Szczepionek (Lublin, Poland)
Test: Amidolytic activity of thrombin (chromogenic substrate H-D-Phe-Pip-Arg-pNA)
Type: biochemical
Conditions: amidolytic activity; Tris pH 8.4, 37 °C; IC50 by extrapolation using a linear plot; error 5%; read-out: IC50 Thrombin
Method: The determination of amidolytic activity was performed as previously described by Okada. A detailed description of the method is given below: 0.2 mL of the examined peptides (0.15 M NaCl as contro), a buffer, and 0.1 mL of enzyme solution were mixed. The final peptide concentrations were: 0.2 mM, 2 mM, and 20 mM. The mixture was incubated at 37 °C for 3 min; then the synthetic substrate solution was added in the same buffer. […] IC50 was calculated mathematically by extrapolation using a linear plot.
Value expressed in µM; do not type the unit.

Known IC50 results, listed for orientation:
SUBSTANCE	ASSAY_READOUT	MEASURED_NUMBER
H-KTTKS-NH2 [Peptide 5, H-Lys-Thr-Thr-Lys-Ser-NH2]	IC50	7040
H-KTTRS-OH [Peptide 9, H-Lys-Thr-Thr-Arg-Ser-OH]	IC50	4010
H-KTTKS-OH [Peptide 1, H-Lys-Thr-Thr-Lys-Ser-OH, reference compound]	IC50	7810
Ac-RTTRS-NH2 [Peptide 22, Ac-Arg-Thr-Thr-Arg-Ser-NH2]	IC50	1470
H-RTTKS-NH2 [Peptide 29, H-Arg-Thr-Thr-Lys-Ser-NH2]	IC50	2430
H-RTTRS-OH [Peptide 17, H-Arg-Thr-Thr-Arg-Ser-OH]	IC50	3890

Per the record, H-RTTKS-OH [Peptide 25, H-Arg-Thr-Thr-Lys-Ser-OH] has IC50 of 2510

Per the record, Ac-RTTRS-OH [Peptide 18, Ac-Arg-Thr-Thr-Arg-Ser-OH] has IC50 of 3120

Per the record, Ac-KTTRS-OH [Peptide 10, Ac-Lys-Thr-Thr-Arg-Ser-OH] has IC50 of 2890

Per the record, Ac-KTTKS-OH [Peptide 2, Ac-Lys-Thr-Thr-Lys-Ser-OH] has IC50 of 2200

Per the record, Ac-KTTRS-NH2 [Peptide 14, Ac-Lys-Thr-Thr-Arg-Ser-NH2] has IC50 of 2950
